SYSTEM NAME: OsWRKY34 (Oryza sativa, UniProt Q0JBA9 1-250)
Sequence (Q0JBA9 entry or part of it): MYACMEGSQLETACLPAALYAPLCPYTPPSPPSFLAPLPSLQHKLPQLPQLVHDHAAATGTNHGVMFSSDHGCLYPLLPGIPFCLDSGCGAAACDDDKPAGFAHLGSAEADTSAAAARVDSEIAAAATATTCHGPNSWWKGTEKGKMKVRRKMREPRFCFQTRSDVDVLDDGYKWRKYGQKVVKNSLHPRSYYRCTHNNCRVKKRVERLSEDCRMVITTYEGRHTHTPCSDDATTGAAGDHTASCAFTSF
MEASUREMENT NOTES: protein-binding microarray (RPBM); PBS, 2% BSA, 51.3 ng/ul salmon testes DNA, 50 uM zinc acetate, 200 nM TF, 25 C, 1 h; high values mean tight binding
RUN PARAMETERS: protein: recombinant; tags: N-terminal polyhistidine and DsRed monomer fusion (pET32a); label: CyDye5-dUTP incorporated in the synthesized complementary strand; 3' TTTTT single-stranded linker to array surface; dsDNA, one strand shown
Whole data set: some 68,000 sequences, median “fluorescence intensity (a.u.)” near 9,100, cut for the highest 2% near 16,000. What follows is part of a selection rich in the highest values, with near analogues and random picks from the rest.
MEASURE: binding signal

Some sequences with known binding signal results, for comparison:
macromolecule_sequence=ATCCCGCTTATCCCACTTCTAATTCATTTTTTCTTTTAAACGGAGTCACCTAGTGCAG measure="binding signal" value_measured="10900 fluorescence intensity (a.u.)"
macromolecule_sequence=TCTACCCGCCTTCCTTTTAGTCCCCGCGTCTCCACAAAATCGGAGTCACCTAGTGCAG measure="binding signal" value_measured="10100 fluorescence intensity (a.u.)"
macromolecule_sequence=TTGCTCACCAGAGCTACTACTACCGGTCTGTCACGCTCACCGGAGTCACCTAGTGCAG measure="binding signal" value_measured="9180 fluorescence intensity (a.u.)"
macromolecule_sequence=CCGCTCGTCTTCCACTGCAGCCCAGCTCCCGTTCTTTCAACGGAGTCACCTAGTGCAG measure="binding signal" value_measured="16500 fluorescence intensity (a.u.)"
macromolecule_sequence=CCGACTGCTCAATCACCACCGGTCTGACCGGCTACCAGAGCGGAGTCACCTAGTGCAG measure="binding signal" value_measured="17200 fluorescence intensity (a.u.)"
macromolecule_sequence=GTACTCCCTCTGACCCTAAATATTTGACGTCGTTGACTTTCGGAGTCACCTAGTGCAG measure="binding signal" value_measured="16300 fluorescence intensity (a.u.)"
macromolecule_sequence=CCTCAACCGTGACTCAGTTATTCAGTTCGACACCCAGCCGCGGAGTCACCTAGTGCAG measure="binding signal" value_measured="8070 fluorescence intensity (a.u.)"
macromolecule_sequence=TTTCTTGTTTTCTTCTCATTCTTCTTTTTTTTCTTTCTTCCGGAGTCACCTAGTGCAG measure="binding signal" value_measured="14700 fluorescence intensity (a.u.)"
macromolecule_sequence=TCACCCACCTGTTGACTACCATCACCACTCCTCGTCTGGACGGAGTCACCTAGTGCAG measure="binding signal" value_measured="8590 fluorescence intensity (a.u.)"
macromolecule_sequence=CGGCGCGGCGGAAGGAGGAGGGGTGGTGGATTCGTAGGGGCGGAGTCACCTAGTGCAG measure="binding signal" value_measured="14600 fluorescence intensity (a.u.)"

stdin: For the sequence shown here, TACACTAACCCTACCATCCCGTACACCACCGAAACCCTAACGGAGTCACCTAGTGCAG , give the reported binding signal.
stdout: 8330 fluorescence intensity (a.u.)

stdin: For the sequence shown here, CTCCGTTATCGTTTGACTTTCTTTTCATTAATATTTTAAACGGAGTCACCTAGTGCAG , give the reported binding signal.
stdout: 15600 fluorescence intensity (a.u.)

stdin: For the sequence shown here, TTTCTTTTTCTTGGTTTTTTTTTGTCTTTTCTTCTTTTTCCGGAGTCACCTAGTGCAG , give the reported binding signal.
stdout: 18200 fluorescence intensity (a.u.)

stdin: For the sequence shown here, GGTTGGGTGGAGGGTATTACAGTCTTTTTGCTTTTGTATTCGGAGTCACCTAGTGCAG , give the reported binding signal.
stdout: 36600 fluorescence intensity (a.u.)

---

SYSTEM NAME: OsWRKY34 (Oryza sativa, UniProt Q0JBA9 1-250)
MEASUREMENT NOTES: protein-binding microarray (RPBM); PBS, 2% BSA, 51.3 ng/ul salmon testes DNA, 50 uM zinc acetate, 200 nM TF, 25 C, 1 h; high values mean tight binding
RUN PARAMETERS: protein: recombinant; tags: N-terminal polyhistidine and DsRed monomer fusion (pET32a); label: CyDye5-dUTP incorporated in the synthesized complementary strand; 3' TTTTT single-stranded linker to array surface; dsDNA, one strand shown
Whole data set: some 68,000 sequences, median “fluorescence intensity (a.u.)” near 9,100, cut for the highest 2% near 16,000. Shown is part of a subset that was picked to be rich in the highest values.
MEASURE: binding signal

Some sequences with known binding signal results, for comparison:
macromolecule_sequence=TTGACTTTTTCTCACATGTTTGACCATTCGTCTTATTCAACGGAGTCACCTAGTGCAG system_name="OsWRKY34 (Oryza sativa, UniProt Q0JBA9 1-250)" value_measured="15400 fluorescence intensity (a.u.)"
macromolecule_sequence=GCGCTGTCAGTGTGTGGGTGGTAGTATATTTTTTTCTTTTCGGAGTCACCTAGTGCAG system_name="OsWRKY34 (Oryza sativa, UniProt Q0JBA9 1-250)" value_measured="12500 fluorescence intensity (a.u.)"
macromolecule_sequence=CGATTTCGACCAATCTAGCCGCTATGTGCACTCCTTTTCCCGGAGTCACCTAGTGCAG system_name="OsWRKY34 (Oryza sativa, UniProt Q0JBA9 1-250)" value_measured="12100 fluorescence intensity (a.u.)"
macromolecule_sequence=TGGTGGTGGTTGTGGTTGGGTTGGTGTCTGTCTTTTGTACCGGAGTCACCTAGTGCAG system_name="OsWRKY34 (Oryza sativa, UniProt Q0JBA9 1-250)" value_measured="16300 fluorescence intensity (a.u.)"
macromolecule_sequence=CCCGGCCCATCTCTCTGGCTCGCACTCCGCCTCCGCCACCCGGAGTCACCTAGTGCAG system_name="OsWRKY34 (Oryza sativa, UniProt Q0JBA9 1-250)" value_measured="10500 fluorescence intensity (a.u.)"
macromolecule_sequence=GCGATGTCGGTGTGTGGGTGGTGGTATATTTTTCCTTTTTCGGAGTCACCTAGTGCAG system_name="OsWRKY34 (Oryza sativa, UniProt Q0JBA9 1-250)" value_measured="18000 fluorescence intensity (a.u.)"
macromolecule_sequence=AAACTAATTTTCTGTGACACTTCCAAGTGCATACCGGAGTCGGAGTCACCTAGTGCAG system_name="OsWRKY34 (Oryza sativa, UniProt Q0JBA9 1-250)" value_measured="8660 fluorescence intensity (a.u.)"
macromolecule_sequence=TTCTCCATTTTTTCATGGTTGACTCTAATCTTCATGACTACGGAGTCACCTAGTGCAG system_name="OsWRKY34 (Oryza sativa, UniProt Q0JBA9 1-250)" value_measured="8280 fluorescence intensity (a.u.)"
macromolecule_sequence=TTACACTTTCTCCTCCATCATGCGCTCATGGCCATCCATTCGGAGTCACCTAGTGCAG system_name="OsWRKY34 (Oryza sativa, UniProt Q0JBA9 1-250)" value_measured="8320 fluorescence intensity (a.u.)"
macromolecule_sequence=GACTTTTTAGTACGTGTTTGACCATTCGTCTTATTCAAAACGGAGTCACCTAGTGCAG system_name="OsWRKY34 (Oryza sativa, UniProt Q0JBA9 1-250)" value_measured="11900 fluorescence intensity (a.u.)"

stdin: For the sequence shown here, GAGGAGGTTGGGTTCTTGATCGGTGTCGGATTTTTGGTTGCGGAGTCACCTAGTGCAG , give the reported binding signal.
stdout: 10800 fluorescence intensity (a.u.)

stdin: For the sequence shown here, GTTGACTTTTTAGTACGTGTTTGACCATTCGTCTTATTCACGGAGTCACCTAGTGCAG , give the reported binding signal.
stdout: 10100 fluorescence intensity (a.u.)

---

SYSTEM NAME: OsWRKY34 (Oryza sativa, UniProt Q0JBA9 1-250)
MEASUREMENT NOTES: protein-binding microarray (RPBM); PBS, 2% BSA, 51.3 ng/ul salmon testes DNA, 50 uM zinc acetate, 200 nM TF, 25 C, 1 h; high values mean tight binding
RUN PARAMETERS: protein: recombinant; tags: N-terminal polyhistidine and DsRed monomer fusion (pET32a); label: CyDye5-dUTP incorporated in the synthesized complementary strand; 3' TTTTT single-stranded linker to array surface; dsDNA, one strand shown
Over roughly 68,000 sequences, “fluorescence intensity (a.u.)” has its median near 9,100; the highest 2% begin near 16,000. The entries come from a sample that favours the highest values as a whole.
binding signal values, listed per item

Some sequences with known binding signal results, for comparison:
macromolecule_sequence=AGGCAGGGTGGGTGGGTGGTGGGCTTGCTCGCTCCGCGTCCGGAGTCACCTAGTGCAG system_name="OsWRKY34 (Oryza sativa, UniProt Q0JBA9 1-250)" value_measured="19700 fluorescence intensity (a.u.)"
macromolecule_sequence=CGAATGGTCAAACATATGAGAAAAAGTCAACGATGTCATCCGGAGTCACCTAGTGCAG system_name="OsWRKY34 (Oryza sativa, UniProt Q0JBA9 1-250)" value_measured="13900 fluorescence intensity (a.u.)"
macromolecule_sequence=TCCCCATCTCCGCCGCAGCCCTCGTCGTCGTCCTCGTCCTCGGAGTCACCTAGTGCAG system_name="OsWRKY34 (Oryza sativa, UniProt Q0JBA9 1-250)" value_measured="18900 fluorescence intensity (a.u.)"
macromolecule_sequence=CAGGGCCATGTTCGCTGATACATTGTGTTGGATTGCACTGCGGAGTCACCTAGTGCAG system_name="OsWRKY34 (Oryza sativa, UniProt Q0JBA9 1-250)" value_measured="8030 fluorescence intensity (a.u.)"
macromolecule_sequence=ACGAACGGTCAAACATGTGCTAAAAAGTCAACGGTGTCAACGGAGTCACCTAGTGCAG system_name="OsWRKY34 (Oryza sativa, UniProt Q0JBA9 1-250)" value_measured="15900 fluorescence intensity (a.u.)"
macromolecule_sequence=GTGGAGGGGCGGCGTTGGGCAGAGGGGCGGCACGGGTGAACGGAGTCACCTAGTGCAG system_name="OsWRKY34 (Oryza sativa, UniProt Q0JBA9 1-250)" value_measured="12800 fluorescence intensity (a.u.)"

stdin: For the sequence shown here, CGGCGGTGGTCTCCGCCGTTGGATCTGGGCGTTGACTTGTCGGAGTCACCTAGTGCAG , give the reported binding signal.
stdout: 9160 fluorescence intensity (a.u.)

stdin: For the sequence shown here, GCCCCAACCTCGTCGCTACCCGCGAGCCTCGGCTTATCGACGGAGTCACCTAGTGCAG , give the reported binding signal.
stdout: 65100 fluorescence intensity (a.u.)

Cited source: paper PMC7819943
